Target: STAT5a (Homo sapiens, UniProt P42229)
Sequence (P42229 1-794): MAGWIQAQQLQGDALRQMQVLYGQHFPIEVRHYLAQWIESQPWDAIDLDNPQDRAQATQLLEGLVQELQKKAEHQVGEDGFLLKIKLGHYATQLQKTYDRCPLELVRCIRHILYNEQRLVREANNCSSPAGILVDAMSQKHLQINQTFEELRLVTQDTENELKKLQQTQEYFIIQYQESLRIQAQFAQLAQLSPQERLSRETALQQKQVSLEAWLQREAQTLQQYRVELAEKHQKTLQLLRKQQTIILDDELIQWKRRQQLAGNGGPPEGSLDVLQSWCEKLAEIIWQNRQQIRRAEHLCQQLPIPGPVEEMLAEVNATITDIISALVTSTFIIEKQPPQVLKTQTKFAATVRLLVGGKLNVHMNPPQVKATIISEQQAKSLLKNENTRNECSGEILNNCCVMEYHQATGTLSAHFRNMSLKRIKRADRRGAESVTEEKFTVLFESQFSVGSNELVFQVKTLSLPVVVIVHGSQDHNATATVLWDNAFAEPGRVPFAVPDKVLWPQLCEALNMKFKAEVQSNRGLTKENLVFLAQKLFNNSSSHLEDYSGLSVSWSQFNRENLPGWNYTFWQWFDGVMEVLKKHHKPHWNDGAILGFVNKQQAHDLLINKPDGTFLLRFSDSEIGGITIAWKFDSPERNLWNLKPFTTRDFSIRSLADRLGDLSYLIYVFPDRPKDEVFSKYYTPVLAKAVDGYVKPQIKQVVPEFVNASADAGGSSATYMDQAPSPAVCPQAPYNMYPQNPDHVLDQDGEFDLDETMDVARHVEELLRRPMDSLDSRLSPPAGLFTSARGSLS
Assay: Fluorescence polarization (FP) binding assay, STAT5a
Details: FP assay; Ki calculated from IC50 (n=3; 6 a n=2); read-out: STAT5a Ki
measuredProperty: Ki
# output: number + unit

Q) // lookup Ki | system=STAT5a (Homo sapiens, UniProt P42229) | key= COc1cc(-c2cc(-c3cc(F)c(F)c(F)c3)cc(C(F)P(=O)(O)O)c2)cc(OC)c1OC (stereo not shown)
A) 20 µM

----------
Exercise: for every item that follows, state its recorded melting point.
Give bare numbers, in °C.

COc1cc(-c2cc(OP(=O)(O)O)cc(-c3ccc(Cl)c(F)c3)c2)cc(OC)c1OC : 127
COc1cc(-c2cc(OP(=O)(O)O)cc(-c3ccc(C(C)C)cc3)c2)cc(OC)c1OC : 182

Can you give me melting point for all of these, one by one?
1. COc1cc(-c2cc(OP(=O)(O)O)cc(-c3ccc(Cl)cc3)c2)cc(OC)c1OC
2. COc1cc(-c2cc(OP(=O)(O)O)cc(-c3ccc(C(=O)O)cc3)c2)cc(OC)c1OC

A)
[129, 152]

Items follow; give melting point for each.
1. CCOC(=O)c1ccc(-c2cc(OP(=O)(O)O)cc(-c3cc(OC)c(OC)c(OC)c3)c2)cc1
2. COc1cc(-c2cc(OP(=O)(O)O)cc(-c3ccc(F)cc3)c2)cc(OC)c1OC

A)
1. 150
2. 165

----------
Target: STAT5a (Homo sapiens, UniProt P42229)
Test: Fluorescence polarization (FP) binding assay, STAT5a
Conditions: FP assay; n=3 (6a n=2); read-out: STAT5a IC50
Protocol: Table S1: Activities of test compounds against STAT5a and STAT5b in FP assays . Experiments were carried out in triplicate (n = 3) unless stated otherwise. n/a: not applicable. [a]data taken from the literature.[1] Ki values were calculated from IC50 values using the published equation.[2] […] Table S2: Activities of 12 against STAT5 proteins in FP assays. Fluorescence polarization assays Fluorescence polarization assays were essentially carried out as previously described.[1] […]
measuredProperty: IC50 (µM)
Give bare numbers, in µM.

Q) For the molecule COc1cc(-c2cc(-c3cc(F)c(F)c(F)c3)cc(C(F)P(=O)(O)O)c2)cc(OC)c1OC (stereo not shown) [compound 12] , what IC50 is on record?
A) 40.4

----------
Molecular target: STAT5b (Homo sapiens, UniProt P51692)
Sequence (P51692 1-787): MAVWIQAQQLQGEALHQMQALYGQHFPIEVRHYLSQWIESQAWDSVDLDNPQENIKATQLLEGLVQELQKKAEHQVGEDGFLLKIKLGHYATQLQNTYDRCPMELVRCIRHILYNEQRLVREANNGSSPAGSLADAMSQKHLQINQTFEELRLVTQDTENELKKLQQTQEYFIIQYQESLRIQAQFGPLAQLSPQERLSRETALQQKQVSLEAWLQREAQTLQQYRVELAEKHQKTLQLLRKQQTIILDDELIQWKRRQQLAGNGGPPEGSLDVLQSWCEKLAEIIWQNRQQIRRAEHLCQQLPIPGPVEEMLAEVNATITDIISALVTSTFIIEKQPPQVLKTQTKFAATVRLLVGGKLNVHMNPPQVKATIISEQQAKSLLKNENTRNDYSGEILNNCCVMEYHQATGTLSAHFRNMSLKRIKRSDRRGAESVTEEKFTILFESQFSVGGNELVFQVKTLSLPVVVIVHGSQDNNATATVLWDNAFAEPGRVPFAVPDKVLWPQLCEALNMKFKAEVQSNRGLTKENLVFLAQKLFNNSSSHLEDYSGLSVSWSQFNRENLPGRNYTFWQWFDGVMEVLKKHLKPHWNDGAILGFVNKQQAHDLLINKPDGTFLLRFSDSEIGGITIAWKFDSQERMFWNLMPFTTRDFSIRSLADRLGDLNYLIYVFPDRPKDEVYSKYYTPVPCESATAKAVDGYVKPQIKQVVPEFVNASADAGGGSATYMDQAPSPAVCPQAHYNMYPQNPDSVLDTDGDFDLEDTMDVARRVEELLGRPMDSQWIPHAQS
Assay: Fluorescence polarization (FP) binding assay, STAT5b
measuredProperty: pIC50
Give bare numbers, as −log10 of the molar value.

COc1cc(-c2cc(OP(=O)(O)O)cc(-c3ccc(C(C)(C)C)cc3)c2)cc(OC)c1OC : 4.29
COc1cc(-c2cc(OP(=O)(O)O)cc(-c3ccc(Cl)cc3)c2)cc(OC)c1OC : 4.03
COc1cc(-c2cc(OP(=O)(O)O)cc(-c3ccc(Cl)c(F)c3)c2)cc(OC)c1OC : 3.98
COc1cc(-c2cc(OP(=O)(O)O)cc(-c3cc(Cl)c(Cl)c(Cl)c3)c2)cc(OC)c1OC : 4.33
COc1cc(-c2cc(OP(=O)(O)O)cc(-c3cc(F)c(F)c(F)c3)c2)cc(OC)c1OC : 4.23

Kindly give each listed record's pIC50.
1. COc1cc(-c2cc(OP(=O)(O)O)cc(-c3ccc(C(C)C)cc3)c2)cc(OC)c1OC
2. CCOC(=O)c1ccc(-c2cc(OP(=O)(O)O)cc(-c3cc(OC)c(OC)c(OC)c3)c2)cc1

A)
[4.29, 3.90]

----------
Target: STAT5b (Homo sapiens)
Sequence (P51692 1-787): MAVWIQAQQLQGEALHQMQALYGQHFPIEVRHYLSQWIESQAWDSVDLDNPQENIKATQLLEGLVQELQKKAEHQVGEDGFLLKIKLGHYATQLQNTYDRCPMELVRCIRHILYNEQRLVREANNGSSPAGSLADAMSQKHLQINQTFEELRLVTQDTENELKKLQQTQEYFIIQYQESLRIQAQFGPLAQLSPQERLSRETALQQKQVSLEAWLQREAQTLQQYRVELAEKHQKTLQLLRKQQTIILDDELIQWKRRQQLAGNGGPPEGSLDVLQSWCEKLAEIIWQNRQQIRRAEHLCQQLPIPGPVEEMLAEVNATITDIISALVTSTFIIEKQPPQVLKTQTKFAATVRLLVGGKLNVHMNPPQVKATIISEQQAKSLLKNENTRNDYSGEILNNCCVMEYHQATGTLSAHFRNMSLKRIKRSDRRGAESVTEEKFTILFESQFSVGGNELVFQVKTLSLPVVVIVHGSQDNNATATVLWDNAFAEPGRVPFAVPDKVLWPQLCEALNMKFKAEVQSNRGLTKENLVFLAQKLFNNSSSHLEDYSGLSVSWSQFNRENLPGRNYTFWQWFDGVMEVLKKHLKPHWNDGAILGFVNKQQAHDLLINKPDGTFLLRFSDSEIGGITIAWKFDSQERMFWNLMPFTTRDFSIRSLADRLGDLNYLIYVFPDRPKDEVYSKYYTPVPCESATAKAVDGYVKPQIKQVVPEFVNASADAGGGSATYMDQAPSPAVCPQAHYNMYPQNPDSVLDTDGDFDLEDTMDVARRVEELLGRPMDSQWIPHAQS
Experiment: Fluorescence polarization (FP) binding assay, STAT5b
Could you please report measured pKi for the items listed next?
Answers are plain numbers, as −log10 of the molar value.

# batch size: 3; output pKi per entry
1. COc1cc(-c2cc(OP(=O)(O)O)cc(-c3cc(Cl)c(Cl)c(Cl)c3)c2)cc(OC)c1OC
2. COc1cc(-c2cc(OP(=O)(O)O)cc(-c3ccc(C(C)(C)C)cc3)c2)cc(OC)c1OC
3. COc1cc(-c2cc(OP(=O)(O)O)cc(-c3ccc(C(C)C)cc3)c2)cc(OC)c1OC

A)
1: 4.64; 2: 4.60; 3: 4.59

Dear reader, for each entry below, please note its pKi.
1. CCOC(=O)c1ccc(-c2cc(OP(=O)(O)O)cc(-c3cc(OC)c(OC)c(OC)c3)c2)cc1
2. COc1cc(-c2cc(OP(=O)(O)O)cc(-c3cc(F)c(F)c(F)c3)c2)cc(OC)c1OC
3. COc1cc(-c2cc(OP(=O)(O)O)cc(-c3ccc(Cl)c(F)c3)c2)cc(OC)c1OC
4. COc1cc(-c2cc(OP(=O)(O)O)cc(-c3ccc(Cl)cc3)c2)cc(OC)c1OC

A)
[4.21, 4.53, 4.29, 4.34]
